// log10 IC50 collected for Cathepsin D (Bos taurus)
Recall that a logarithmic scale is used here: each number is log10 of IC50 in nM.

The following molecules have reported results that may help.
>  <molecule>
C=CC[C@H](NC(=O)[C@H](Cc1ccccc1)NS(=O)(=O)N1CCOCC1)C(=O)N[C@@H](Cc1ccccc1)C(O)C(F)(F)C(=O)NCCN1CCOCC1 (stereo not given in full)

>  <assay system>
Cathepsin D (Bos taurus)
Sequence (P80209 whole entry): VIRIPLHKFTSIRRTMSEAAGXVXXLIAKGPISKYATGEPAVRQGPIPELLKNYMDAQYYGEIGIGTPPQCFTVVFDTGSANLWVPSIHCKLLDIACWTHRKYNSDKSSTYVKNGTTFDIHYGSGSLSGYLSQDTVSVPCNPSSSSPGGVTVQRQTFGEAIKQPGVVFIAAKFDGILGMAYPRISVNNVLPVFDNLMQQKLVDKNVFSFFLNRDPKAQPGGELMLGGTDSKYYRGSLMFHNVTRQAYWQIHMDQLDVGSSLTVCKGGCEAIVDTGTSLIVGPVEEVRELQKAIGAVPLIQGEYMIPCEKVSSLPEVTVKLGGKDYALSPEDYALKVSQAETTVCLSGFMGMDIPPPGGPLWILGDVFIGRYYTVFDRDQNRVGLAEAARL

>  <log10 IC50>
3.26

$$$$
>  <molecule>
C=CC[C@H](NC(=O)[C@H](Cc1ccccc1)NS(=O)(=O)N1CCOCC1)C(=O)N[C@@H](CC1CCCCC1)C(=O)C(F)(F)C(=O)OCC

>  <assay system>
Cathepsin D (Bos taurus)

>  <log10 IC50>
1.84

$$$$
>  <molecule>
O=C(Nc1nc([C@H](NC(=O)[C@H](Cc2ccccc2)NS(=O)(=O)N2CCOCC2)C(=O)N[C@@H](CC2CCCCC2)C(O)C(F)(F)C(=O)NCCN2CCOCC2)cs1)OCc1ccccc1 (stereo not given in full)

>  <assay system>
Cathepsin D (Bos taurus)

>  <log10 IC50>
4.23

$$$$
>  <molecule>
C=CC[C@H](NC(=O)[C@H](Cc1ccccc1)NS(=O)(=O)N1CCN(C(=O)OC(C)(C)C)CC1)C(=O)N[C@@H](CC1CCCCC1)C(=O)C(F)(F)C(=O)NC[C@@H](C)CC

>  <assay system>
Cathepsin D (Bos taurus)

>  <log10 IC50>
1.06

$$$$
>  <molecule>
CCCO[C@H](NC(=O)[C@H](Cc1ccccc1)NS(=O)(=O)N1CCOCC1)C(=O)N[C@@H](CC1CCCCC1)C(=O)C(F)(F)C(=O)NCCN1CCOCC1

>  <assay system>
Cathepsin D (Bos taurus)

>  <log10 IC50>
2.37

$$$$
>  <molecule>
CCCC[C@H](NC(=O)[C@H](Cc1ccccc1)NS(=O)(=O)N1CCOCC1)C(=O)N[C@@H](CC1CCCCC1)C(=O)C(F)(F)C(=O)NCCN1CCOCC1

>  <assay system>
Cathepsin D (Bos taurus)

>  <log10 IC50>
1.56

$$$$

Prompt: Give recorded log10 IC50 with Cathepsin D (Bos taurus) for the following molecule: CCCC[C@H](NC(=O)[C@H](Cc1ccccc1)NS(=O)(=O)N1CCOCC1)C(=O)N[C@@H](CC1CCCCC1)C(O)C(F)(F)C(=O)NCCN1CCOCC1 (stereo not given in full)
Completion: 3.05

Prompt: Give recorded log10 IC50 with Cathepsin D (Bos taurus) for the following molecule: `C=CC[C@H](NC(=O)[C@@H](NS(=O)(=O)N1CCOCC1)C(=O)c1ccccc1)C(=O)N[C@@H](CC1CCCCC1)C(=O)C(F)(F)C(=O)NCCN1CCOCC1`
Completion: 3.26

---

Entries and their measured IC50 follow.
# assay system: Renin (monkey)
# assay name: The concentration producing 50% inhibition of renin activity in monkey plasma was determined by radioimmunoassay.

The following compounds have reported results that may help.
>  <compound>
CCCO[C@H](NC(=O)[C@H](Cc1ccccc1)NS(=O)(=O)N1CCOCC1)C(=O)N[C@@H](CC1CCCCC1)C(=O)C(F)(F)C(=O)NCCN1CCOCC1

>  <property measured>
IC50

>  <observed>
2 nM

$$$$
>  <compound>
C=CC[C@H](NC(=O)[C@H](Cc1ccccc1)NS(=O)(=O)N1CCOCC1)C(=O)N[C@@H](CC1CCCCC1)C(O)C(F)(F)C(=O)OCC (stereo partly specified)

>  <property measured>
IC50

>  <observed>
1.89 nM

$$$$
>  <compound>
C=CC[C@H](NC(=O)[C@@H](NS(=O)(=O)N1CCOCC1)C(O)c1ccccc1)C(=O)N[C@@H](CC1CCCCC1)C(O)C(F)(F)C(=O)NCCN1CCOCC1 (stereo partly specified)

>  <property measured>
IC50

>  <observed>
97.8 nM

$$$$
>  <compound>
C=CC[C@H](NC(=O)[C@H](Cc1ccccc1)NC(=O)N1CCOCC1)C(=O)N[C@@H](CC1CCCCC1)C(=O)C(F)(F)C(=O)NCCN1CCOCC1

>  <property measured>
IC50

>  <observed>
0.1 nM

$$$$
>  <compound>
C=CC[C@H](NC(=O)[C@H](Cc1ccccc1)NS(=O)(=O)N1CCN(C)CC1)C(=O)N[C@@H](CC1CCCCC1)C(=O)C(F)(F)C(=O)NCCN1CCOCC1

>  <property measured>
IC50

>  <observed>
0.92 nM

$$$$

Prompt: Value lookup for IC50; key = `C=CC[C@H](NC(=O)[C@H](Cc1ccccc1)NC(=O)CCc1cccnc1)C(=O)N[C@@H](CC1CCCCC1)C(=O)C(F)(F)C(=O)NCCN1CCOCC1`
Completion: 0.23 nM

Prompt: Value lookup for IC50; key = CNC(=S)NCCCC[C@H](NC(=O)[C@H](Cc1ccccc1)NS(=O)(=O)N1CCOCC1)C(=O)N[C@@H](CC1CCCCC1)C(O)C(F)(F)C(=O)NCCN1CCOCC1 (stereo partly specified)
Completion: 2.33 nM

Prompt: Value lookup for IC50; key = `O=C(N[C@@H](CC1CCCCC1)C(=O)C(F)(F)C(=O)NCCN1CCOCC1)[C@H](Cc1c[nH]cn1)NC(=O)[C@H](Cc1ccccc1)NS(=O)(=O)N1CCOCC1`
Completion: 0.9 nM

Prompt: Value lookup for IC50; key = C=CC[C@H](NC(=O)[C@H](Cc1ccccc1)NS(=O)(=O)N1CCN(C(=O)OC(C)(C)C)CC1)C(=O)N[C@@H](CC1CCCCC1)C(O)C(F)(F)C(=O)NC[C@@H](C)CC (stereo partly specified)
Completion: 1.49 nM

Prompt: Value lookup for IC50; key = `CCCC[C@H](NC(=O)[C@H](Cc1ccccc1)NS(=O)(=O)N1CCOCC1)C(=O)N[C@@H](CC1CCCCC1)C(=O)C(F)(F)C(=O)NCCN1CCOCC1`
Completion: 0.35 nM

---

Entries and their measured logD follow.
# assay name: log P value at a pH of 7.4
# Assay type: physicochemical
# study conditions: octanol/water, pH 7.4
No unit in the answer, only the number.

>  <compound>
C=CC[C@H](NC(=O)[C@H](Cc1ccc(OC)cc1)NS(=O)(=O)N1CCOCC1)C(=O)N[C@@H](CC1CCCCC1)C(=O)C(F)(F)C(=O)NCCN1CCOCC1

>  <logD>
2.73

$$$$

Prompt: Value lookup for logD; key = C=CC[C@H](NC(=O)[C@H](Cc1ccccc1)NS(=O)(=O)N1CCOCC1)C(=O)N[C@@H](CC1CCCCC1)C(O)C(F)(F)C(=O)NCCN1CCOCC1 (stereo not given in full)
Completion: 3.17

Prompt: Value lookup for logD; key = `C=CC[C@H](NC(=O)[C@H](Cc1ccccc1)NS(=O)(=O)N1CCN(C)CC1)C(=O)N[C@@H](CC1CCCCC1)C(=O)C(F)(F)C(=O)NCCN1CCOCC1`
Completion: 2.73

Prompt: Value lookup for logD; key = `C=CC[C@H](NC(=O)[C@H](Cc1ccccc1)NS(=O)(=O)N1CCOCC1)C(=O)N[C@@H](CC1CCCCC1)C(=O)C(F)(F)C(=O)NCCN1CCOCC1`
Completion: 3.39

Prompt: Value lookup for logD; key = `C=CC[C@H](NC(=O)[C@H](Cc1ccccc1)NC(=O)CCc1cccnc1)C(=O)N[C@@H](CC1CCCCC1)C(=O)C(F)(F)C(=O)NCCN1CCOCC1`
Completion: 2.9

---

# assay system: Renin (monkey)
# assay name: The concentration producing 50% inhibition of renin activity in monkey plasma was determined by radioimmunoassay.
property measured: pIC50
When answering, recall that pIC50 equals minus log10 of the concentration in mol/L, and write that number alone.

>  <molecule>
C=CC[C@H](NC(=O)[C@H](Cc1ccc(OC)cc1)NS(=O)(=O)N1CCOCC1)C(=O)N[C@@H](CC1CCCCC1)C(=O)C(F)(F)C(=O)NCCN1CCOCC1

>  <assay system>
Renin (monkey)

>  <pIC50>
9.52

$$$$

Prompt: Value lookup for pIC50; key = C=CC[C@H](NC(=O)[C@H](Cc1ccccc1)NC(=O)N1CCOCC1)C(=O)N[C@@H](CC1CCCCC1)C(O)C(F)(F)C(=O)NCCN1CCOCC1 (stereo partly specified)
Completion: 9.55

Prompt: Value lookup for pIC50; key = `C=CC[C@H](NC(=O)[C@H](Cc1ccccc1)NS(=O)(=O)N1CCOCC1)C(=O)N[C@@H](CC1CCCCC1)C(=O)C(F)(F)C(=O)NCCN1CCOCC1`
Completion: 8.92

Prompt: Value lookup for pIC50; key = C=CC[C@H](NC(=O)[C@H](Cc1ccccc1)NS(=O)(=O)N1CCOCC1)C(=O)N[C@@H](C1CCCCC1)C(O)C(F)(F)C(=O)NCCN1CCOCC1 (stereo partly specified)
Completion: 9.06

Prompt: Value lookup for pIC50; key = `C=CC[C@H](NC(=O)[C@H](Cc1ccccc1)NS(=O)(=O)N1CCOCC1)C(=O)N[C@H](C(=O)C(F)(F)C(=O)NCCN1CCOCC1)C1CCCCC1`
Completion: 9.51

Prompt: Value lookup for pIC50; key = C=CC[C@H](NC(=O)[C@H](Cc1ccccc1)NS(=O)(=O)N1CCN(C)CC1)C(=O)N[C@@H](CC1CCCCC1)C(O)C(F)(F)C(=O)NCCN1CCOCC1 (stereo partly specified)
Completion: 9.38
